Record set: Ki | E3 ubiquitin-protein ligase Mdm2 (Homo sapiens, UniProt Q00987) | literature, multiple sources.
experimental.endpoint: Ki (µM)

{"molecule": "CCOc1ccc(-c2cc(C(=O)O)nn2-c2ccc(Oc3ccccc3)cc2)cc1", "quantity.unit": "µM", "relation.qualifier": "=", "numeric.readout": 1.03}
{"molecule": "CCOCCOC(=O)N1C(c2ccc(OC)cc2OC(C)C)=NC(c2ccc(Cl)cc2)C1c1ccc(Cl)cc1 (centres undefined)", "quantity.unit": "µM", "relation.qualifier": "=", "numeric.readout": 1.38}
{"molecule": "CCOc1ccc(-c2cc(C(=O)O)nn2-c2ccccc2)cc1", "quantity.unit": "µM", "relation.qualifier": "=", "numeric.readout": 3.26}
{"molecule": "COc1ccc(C2=NC(c3ccc(Cl)cc3)C(c3ccc(Cl)cc3)N2C(=O)CN2CCOCC2)c(OC(C)C)c1 (centres undefined)", "quantity.unit": "µM", "relation.qualifier": "=", "numeric.readout": 2.64}
{"molecule": "O=C(O)c1cc(-c2ccccc2)n(-c2ccccc2)n1", "quantity.unit": "µM", "relation.qualifier": ">", "numeric.readout": 25}
{"molecule": "CC(C)Oc1ccc(C(=O)Nc2c(C(=O)O)nn(-c3ccc(C(C)C)cc3)c2-c2ccc(OCc3ccccc3)cc2)cc1", "quantity.unit": "µM", "relation.qualifier": "=", "numeric.readout": 2.19}
{"molecule": "COc1ccc(C2=NC(c3ccc(Cl)cc3)C(c3ccc(Cl)cc3)N2C(=O)CCN2CCOCC2)c(OC(C)C)c1 (centres undefined)", "quantity.unit": "µM", "relation.qualifier": "=", "numeric.readout": 1.3}
{"molecule": "CC(C)c1ccc2/c(=N\\c3ccc(Oc4ccccc4)cc3)c3cc(O)c(O)c(O)c3n(C(=O)c3ccc(C(C)(C)C)cc3)c2c1", "quantity.unit": "µM", "relation.qualifier": ">", "numeric.readout": 25}
{"molecule": "CCOc1ccc(-c2c(NC(=O)c3ccccc3)c(C(=O)O)nn2-c2ccc(Oc3ccccc3)cc2)cc1", "quantity.unit": "µM", "relation.qualifier": "=", "numeric.readout": 1.13}
{"molecule": "O=C1CN(C(=O)N2C(c3ccc4c(c3)C(=O)NCC(=O)N4c3ccccc3)=N[C@@H](c3ccc(Cl)cc3)[C@H]2c2ccc(Cl)cc2)CCN1", "quantity.unit": "µM", "relation.qualifier": "=", "numeric.readout": 0.0021}
{"molecule": "CC(C)Oc1ccc(-c2cc(C(=O)O)nn2-c2ccc(C(C)C)cc2)cc1", "quantity.unit": "µM", "relation.qualifier": "=", "numeric.readout": 2.14}
{"molecule": "CCOc1ccc(-c2c(NC(=O)c3ccc(C(C)(C)C)cc3)c(C(=O)O)nn2-c2ccc(Oc3ccccc3)cc2)cc1", "quantity.unit": "µM", "relation.qualifier": "=", "numeric.readout": 0.689}
{"molecule": "CCOc1ccc(-c2c(NC(=O)c3ccc(OCC(C)C)cc3)c(C(=O)O)nn2-c2ccc(Oc3ccccc3)cc2)cc1", "quantity.unit": "µM", "relation.qualifier": "=", "numeric.readout": 0.446}
{"molecule": "CC(C)COc1ccc(C(=O)Nc2c(C(=O)O)nn(-c3ccc(Oc4ccccc4)cc3)c2-c2ccc(OC(C)C)cc2)cc1", "quantity.unit": "µM", "relation.qualifier": "=", "numeric.readout": 0.422}
{"molecule": "COc1ccc(C2=NC(c3ccc(Cl)cc3)C(c3ccc(Cl)cc3)N2C(=O)OCc2ccccc2)c(OC(C)C)c1 (centres undefined)", "quantity.unit": "µM", "relation.qualifier": "=", "numeric.readout": 32.4}
{"molecule": "COc1ccc(C2=NC(c3ccc(Cl)cc3)C(c3ccc(Cl)cc3)N2C(=O)N2CCOCC2)c(OC(C)C)c1 (centres undefined)", "quantity.unit": "µM", "relation.qualifier": "=", "numeric.readout": 4.07}
{"molecule": "CC(C)Oc1ccc(-c2cc(C(=O)O)nn2-c2ccccc2)cc1", "quantity.unit": "µM", "relation.qualifier": "=", "numeric.readout": 2.29}
{"molecule": "CC(C)Oc1ccc(-c2cc(C(=O)O)nn2-c2ccc(Oc3ccccc3)cc2)cc1", "quantity.unit": "µM", "relation.qualifier": "=", "numeric.readout": 0.712}
{"molecule": "CC(C)c1ccc(-n2nc(C(=O)O)cc2-c2ccc(OCc3ccccc3)cc2)cc1", "quantity.unit": "µM", "relation.qualifier": "=", "numeric.readout": 0.616}
